# Tested on: Escherichia coli TOP10
# test-method-notes: shrunken log2 fold change of peptide-encoding DNA abundance (4.5 h post-induction vs induction); higher = less antimicrobial activity (less host growth inhibition)
# condition-label: time post-induction: 4.5 h; library: site-saturation at positions 5, 18, 19, 20
measurement-label: shrunken log2 fold change
Could you respond with only the numeric value?

Problem: Fill in: shrunken log2 fold change of `RRIRYRPPRLPRPRPRPHNVPRP` is ___
Result: -0.14

Problem: Again, but for `RRIRLRPPRLPRPRPRPATHPRP`
Result: 0.253

Problem: Again, but for `RRIRFRPPRLPRPRPRPQQCPRP`
Result: -0.181

Problem: Again, but for `RRIRYRPPRLPRPRPRPHLEPRP`
Result: -0.021

Problem: Again, but for `RRIRARPPRLPRPRPRPILTPRP`
Result: 0.0217

Problem: Again, but for `RRIRLRPPRLPRPRPRPWSPPRP`
Result: -0.303

Problem: Again, but for `RRIRERPPRLPRPRPRPGLSPRP`
Result: -0.113

Problem: Again, but for `RRIRTRPPRLPRPRPRPYEQPRP`
Result: -0.0291

* * *

# Tested on: Escherichia coli TOP10;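 note: peptides expressed intracellularly from a pBAD plasmid library in pooled LB shake-flask culture, induced with 0.3% L-arabinose, DNA abundance read by NGS, three biological replicates, DESeq2 with apeglm shrinkage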
# test-method-notes: shrunken log2 fold change of peptide-encoding DNA abundance (4.5 h post-induction vs induction); higher = less antimicrobial activity (less host growth inhibition)
# condition-label: time post-induction: 4.5 h; library: site-saturation at positions 5, 18, 19, 20
For each of the sequences below, state its shrunken log2 fold change.
Could you respond with only the numeric value?

Problem: Fill in: shrunken log2 fold change of `RRIRWRPPRLPRPRPRPFAEPRP` is ___
Result: 0.801

Problem: Again, but for `RRIRNRPPRLPRPRPRPCSEPRP`
Result: -0.231

Problem: Again, but for `RRIRERPPRLPRPRPRPHNQPRP`
Result: -0.325

Problem: Again, but for `RRIRSRPPRLPRPRPRPQRFPRP`
Result: -0.152

Problem: Again, but for `RRIRVRPPRLPRPRPRPWEAPRP`
Result: 0.268

Problem: Again, but for `RRIRPRPPRLPRPRPRPRTMPRP`
Result: 0.276

Problem: Again, but for `RRIRSRPPRLPRPRPRPGAIPRP`
Result: 0.187

Problem: Again, but for `RRIRMRPPRLPRPRPRPGVLPRP`
Result: 0.135

Problem: Again, but for `RRIRGRPPRLPRPRPRPSRNPRP`
Result: 0.0365

Problem: Again, but for `RRIRFRPPRLPRPRPRPGMEPRP`
Result: 0.0216

Problem: Again, but for `RRIRDRPPRLPRPRPRPYAEPRP`
Result: 0.247

Problem: Again, but for `RRIRHRPPRLPRPRPRPVPVPRP`
Result: 0.0601

Problem: Again, but for `RRIRDRPPRLPRPRPRPWRWPRP`
Result: 0.196

Problem: Again, but for `RRIRFRPPRLPRPRPRPFNNPRP`
Result: -0.262

Problem: Again, but for `RRIRPRPPRLPRPRPRPYEYPRP`
Result: -0.314

Problem: Again, but for `RRIRYRPPRLPRPRPRPHKPPRP`
Result: -0.171

Problem: Again, but for `RRIRQRPPRLPRPRPRPLLLPRP`
Result: -0.363

Problem: Again, but for `RRIRVRPPRLPRPRPRPTWSPRP`
Result: 0.0201

Problem: Again, but for `RRIRKRPPRLPRPRPRPDIKPRP`
Result: 0.137

Problem: Again, but for `RRIRCRPPRLPRPRPRPSRSPRP`
Result: -0.136

Problem: Again, but for `RRIRNRPPRLPRPRPRPGIFPRP`
Result: -0.0122

Problem: Again, but for `RRIRCRPPRLPRPRPRPDDMPRP`
Result: -0.477

Problem: Again, but for `RRIRNRPPRLPRPRPRPGMNPRP`
Result: -0.02

Problem: Again, but for `RRIRIRPPRLPRPRPRPKLDPRP`
Result: -0.106

Problem: Again, but for `RRIRCRPPRLPRPRPRPRKWPRP`
Result: -0.0179

Problem: Again, but for `RRIRERPPRLPRPRPRPITHPRP`
Result: -0.527

Problem: Again, but for `RRIRMRPPRLPRPRPRPEWVPRP`
Result: 0.32

Problem: Again, but for `RRIRPRPPRLPRPRPRPGPFPRP`
Result: 0.574

Problem: Again, but for `RRIRGRPPRLPRPRPRPRAFPRP`
Result: 0.793

Problem: Again, but for `RRIRYRPPRLPRPRPRPAQYPRP`
Result: -0.562

Problem: Again, but for `RRIRSRPPRLPRPRPRPPMEPRP`
Result: -0.117

Problem: Again, but for `RRIRVRPPRLPRPRPRPITLPRP`
Result: 1.44

Problem: Again, but for `RRIRGRPPRLPRPRPRPAQWPRP`
Result: 0.933

Problem: Again, but for `RRIRRRPPRLPRPRPRPHETPRP`
Result: 1.07

Problem: Again, but for `RRIRTRPPRLPRPRPRPMNMPRP`
Result: -0.24

Problem: Again, but for `RRIRRRPPRLPRPRPRPTHAPRP`
Result: 1.13

Problem: Again, but for `RRIRQRPPRLPRPRPRPVNFPRP`
Result: -0.346

Problem: Again, but for `RRIRQRPPRLPRPRPRPRENPRP`
Result: 0.0469

Problem: Again, but for `RRIRWRPPRLPRPRPRPWEQPRP`
Result: 0.0277

Problem: Again, but for `RRIRTRPPRLPRPRPRPGVPPRP`
Result: 0.202

Problem: Again, but for `RRIRMRPPRLPRPRPRPGCGPRP`
Result: 1.04

Problem: Again, but for `RRIRDRPPRLPRPRPRPWLIPRP`
Result: -0.138

Problem: Again, but for `RRIRHRPPRLPRPRPRPVPGPRP`
Result: -0.163

Problem: Again, but for `RRIRHRPPRLPRPRPRPTYHPRP`
Result: -0.514

Problem: Again, but for `RRIRYRPPRLPRPRPRPQFSPRP`
Result: 0.0125

Problem: Again, but for `RRIRFRPPRLPRPRPRPYVKPRP`
Result: -0.787

Problem: Again, but for `RRIRWRPPRLPRPRPRPKPGPRP`
Result: 0.34

Problem: Again, but for `RRIRCRPPRLPRPRPRPPGLPRP`
Result: 0.72

Problem: Again, but for `RRIRMRPPRLPRPRPRPSSVPRP`
Result: 3.19

Problem: Again, but for `RRIRKRPPRLPRPRPRPKPIPRP`
Result: 0.742

Problem: Again, but for `RRIRKRPPRLPRPRPRPFMAPRP`
Result: 0.0398

Problem: Again, but for `RRIRMRPPRLPRPRPRPPEPPRP`
Result: 0.296

Problem: Again, but for `RRIRERPPRLPRPRPRPWCPPRP`
Result: -0.758

Problem: Again, but for `RRIRQRPPRLPRPRPRPHLNPRP`
Result: -0.29

Problem: Again, but for `RRIRPRPPRLPRPRPRPCNSPRP`
Result: -0.276

Problem: Again, but for `RRIRVRPPRLPRPRPRPLGPPRP`
Result: 0.342

Problem: Again, but for `RRIRLRPPRLPRPRPRPIEMPRP`
Result: -0.0708

Problem: Again, but for `RRIRDRPPRLPRPRPRPVISPRP`
Result: 0.277

Problem: Again, but for `RRIRFRPPRLPRPRPRPNYRPRP`
Result: 0.055

Problem: Again, but for `RRIRKRPPRLPRPRPRPAHYPRP`
Result: 0.123

Problem: Again, but for `RRIRTRPPRLPRPRPRPPNMPRP`
Result: -0.203

Problem: Again, but for `RRIRCRPPRLPRPRPRPLVIPRP`
Result: -0.401

Problem: Again, but for `RRIRRRPPRLPRPRPRPEHEPRP`
Result: 0.0952
